Field: pIC50. Provide a value for each of the compounds that follow.
# target under test: KRAS G12D (Homo sapiens, UniProt P01116+P62937, G12D)
# Sequence (P01116 1-169 isoform P01116-2 G12D limits assumed, one chain of several): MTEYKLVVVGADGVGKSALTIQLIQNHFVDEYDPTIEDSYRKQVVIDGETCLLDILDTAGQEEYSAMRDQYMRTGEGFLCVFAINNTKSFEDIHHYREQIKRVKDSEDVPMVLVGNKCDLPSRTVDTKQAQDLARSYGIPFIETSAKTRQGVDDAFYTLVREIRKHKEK
# experiment description: Ras-Raf disruption / FRET / MOA assay (BRAF RBD)
# Format: biochemical
# measurement context: KRAS G12D FRET data IC50, Ras-Raf disruption, with Cyclophilin A
pIC50: −log10 of the molar value.

The cases that follow already have their pIC50 on record.
1) CCn1c(-c2cccnc2[C@H](C)OC)c2c3cc(ccc31)-c1cc(O)cc(c1)C[C@H](NC(=O)[C@H](C(C)C)N(C)C(=O)CN(C)C(=O)[C@@H]1CN1C1COC1)C(=O)N1CCC[C@H](N1)C(=O)OCC(C)(C)C2 (stereo partly shown) [Example 276] :: 7.00 to 8.00
2) CCn1c(-c2cccnc2[C@H](C)OC)c2c3cc(ccc31)-c1cc(O)cc(c1)C[C@H](NC(=O)[C@H](C(C)C)N(C)C(=O)CN(C)C(=O)[C@@H]1CN1CCCC#N)C(=O)N1CCC[C@H](N1)C(=O)OCC(C)(C)C2 (stereo partly shown) [Example 274] :: 7.00 to 8.00
3) CC[C@H]1N[C@H]1C(=O)N(C)CC(=O)N(C)[C@H](C(=O)N[C@H]1Cc2cc(O)cc(c2)-c2ccc3c(c2)c(c(-c2cccnc2[C@H](C)OC)n3CC)CC(C)(C)COC(=O)[C@@H]2CCCN(N2)C1=O)C(C)C [Example 262] :: 6.00 to 7.00

Find pIC50 for CCn1c(-c2cccnc2[C@H](C)OC)c2c3cc(ccc31)-c1cc(O)cc(c1)C[C@H](NC(=O)[C@H](C(C)C)N(C)C(=O)CN(C)C(=O)[C@]1(C)CN1)C(=O)N1CCC[C@H](N1)C(=O)OCC(C)(C)C2 [Example 257] on KRAS G12D (Homo sapiens, UniProt P01116+P62937, G12D) and write it down.
6.00 to 7.00

---

# target under test: KRAS G13C (Homo sapiens, UniProt P01116+P62937, G13C)
# Sequence (P01116 1-169 isoform P01116-2 G13C limits assumed): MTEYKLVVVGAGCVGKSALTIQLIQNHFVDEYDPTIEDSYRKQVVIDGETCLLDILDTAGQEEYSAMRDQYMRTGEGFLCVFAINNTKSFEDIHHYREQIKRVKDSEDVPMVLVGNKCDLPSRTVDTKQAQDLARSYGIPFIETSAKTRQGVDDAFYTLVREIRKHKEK
# Sequence (P62937 whole entry): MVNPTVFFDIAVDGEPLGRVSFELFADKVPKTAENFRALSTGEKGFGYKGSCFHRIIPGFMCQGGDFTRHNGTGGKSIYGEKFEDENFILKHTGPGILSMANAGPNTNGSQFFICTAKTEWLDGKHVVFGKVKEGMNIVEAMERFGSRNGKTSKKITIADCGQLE
# experiment description: Ras-Raf disruption / FRET / MOA assay (BRAF RBD)
# Assay type: biochemical
# measurement context: Ras-Raf disruption, with Cyclophilin A; read-out: KRAS G13C FRET data IC50
recorded endpoint: IC50

Solved entries:
1) CCn1c(-c2cccnc2[C@H](C)OC)c2c3cc(ccc31)-c1cc(O)cc(c1)C[C@H](NC(=O)[C@H](C(C)C)N(C)C(=O)[C@@H]1CN1)C(=O)N1CCC[C@H](N1)C(=O)OCC(C)(C)C2 [Example 100] :: 10 to 100 nM
2) CCn1c(-c2cccnc2[C@H](C)OC)c2c3cc(ccc31)-c1cc(O)cc(c1)C[C@H](NC(=O)[C@H](C(C)C)N(C)C(=O)CN(C)S(=O)(=O)[C@@H]1CN1C)C(=O)N1CCC[C@H](N1)C(=O)OCC(C)(C)C2 (single isomer, unassigned) [Example 92] :: 10 to 100 nM
3) CCn1c(-c2cccnc2[C@H](C)OC)c2c3cc(ccc31)-c1cc(O)cc(c1)C[C@H](NC(=O)[C@H](C(C)C)N(C)C(=O)c1ncc(NC(=O)[C@@H]3CN3)n1C)C(=O)N1CCC[C@H](N1)C(=O)OCC(C)(C)C2 [Example 83] :: 10 to 100 nM

Hello, I would appreciate it if you could give IC50 for each entry below.
1. CCn1c(-c2cccnc2[C@H](C)OC)c2c3cc(ccc31)-c1csc(n1)C[C@H](NC(=O)[C@H](C(C)C)N(C)C(=O)N1CC[C@H]1CN(C)C(=O)[C@@H]1CN1)C(=O)N1CCC[C@H](N1)C(=O)OCC(C)(C)C2 [Example 235]
2. CCn1c(-c2cccnc2[C@H](C)OC)c2c3cc(ccc31)-c1csc(n1)C[C@H](NC(=O)[C@H](C(C)C)N(C)C(=O)N1CC(CN(C)C(=O)[C@H]3CN3)C1)C(=O)N1CCC[C@H](N1)C(=O)OCC(C)(C)C2 (atropisomer, axis not shown) [Example 224]

1: 1000 to 10000 nM; 2: 100 to 1000 nM

Provide reported IC50 for each item, in the same order as listed.
1. CCn1c(-c2cccnc2[C@H](C)OC)c2c3cc(ccc31)-c1cc(O)cc(c1)C[C@H](NC(=O)[C@H](C(C)C)N1CC[C@]3(CCN(C(=O)[C@H]4CN4)C3)C1=O)C(=O)N1CCC[C@H](N1)C(=O)OCC(C)(C)C2 [Example 146]
2. CCn1c(-c2cccnc2[C@H](C)OC)c2c3cc(ccc31)-c1cc(O)cc(c1)C[C@H](NC(=O)[C@H](C(C)C)N(C)C(=O)[C@@H]1CCCN(C(=O)[C@@H]3CN3)C1)C(=O)N1CCC[C@H](N1)C(=O)OCC(C)(C)C2 [Example 238]
3. CCn1c(-c2cccnc2[C@H](C)OC)c2c3cc(ccc31)-c1cc(O)cc(c1)C[C@H](NC(=O)[C@H](C(C)C)N1CCC3(CN(C(=O)[C@@H]4CN4)C3)C1=O)C(=O)N1CCC[C@H](N1)C(=O)OCC(C)(C)C2 [Example 109]

1. 10 to 100 nM
2. 10 to 100 nM
3. 10 to 100 nM

Determine its reported IC50: CCn1c(-c2cccnc2[C@H](C)OC)c2c3cc(ccc31)-c1cc(O)cc(c1)C[C@H](NC(=O)[C@H](C(C)C)N(C)C(=O)N1CC[C@H](N(C)C(=O)[C@H]3CN3)C1)C(=O)N1CCC[C@H](N1)C(=O)OCC(C)(C)C2 (atropisomer, axis not shown) [Example 254]
10 to 100 nM
